The reported measurements were obtained from patent US20130029970A1.

- System: human CB2 receptors (Homo sapiens, UniProt P34972)
- Construct: (cDNA clone) CNR0200000
- Sequence (P34972 whole entry): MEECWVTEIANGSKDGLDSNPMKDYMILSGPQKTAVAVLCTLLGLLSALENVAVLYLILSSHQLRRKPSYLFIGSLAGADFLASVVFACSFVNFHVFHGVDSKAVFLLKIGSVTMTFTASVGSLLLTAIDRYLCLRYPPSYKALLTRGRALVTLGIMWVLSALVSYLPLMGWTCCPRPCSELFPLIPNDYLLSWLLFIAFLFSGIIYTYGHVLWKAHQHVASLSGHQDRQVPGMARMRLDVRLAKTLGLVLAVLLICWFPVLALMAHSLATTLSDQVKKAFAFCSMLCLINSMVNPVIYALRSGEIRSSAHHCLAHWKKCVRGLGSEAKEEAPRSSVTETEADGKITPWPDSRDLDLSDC
- Assay Name: cAMP assay in HEK-293 cells, hCB2 agonist
- Type: cell-based
Assay Readout: EC50

Here is how some compounds turned out for EC50.
Compound | Value Observed
COCCn1c(C)cc2cc(C(=O)c3ccc(OC)cc3)sc21 | 100 to 1000 nM
COc1ccc(C(=O)c2cc3cc(C)n(CCNCC4CCOCC4)c3s2)cn1 | 100 to 1000 nM
COc1ccc(C(=O)c2cc3cc(C)n(CCN4CCOCC4)c3s2)nc1 | < 100 nM
Cc1c(Cl)c2cc(C(=O)c3cccc(Cl)c3Cl)sc2n1CCN1CCOCC1 | < 100 nM
Cc1cc2cc(C(=O)c3ccc(N(C)C)cc3)sc2n1CCN1CCOCC1 | 100 to 1000 nM
CSc1ccc(C(=O)c2cc3cc(C)n(CCN4CCOCC4)c3s2)cc1 | 100 to 1000 nM
COc1cc(F)c(C(=O)c2cc3cc(C)n(CCN4CCOCC4)c3s2)c(F)c1 | < 100 nM
CCOc1ccc(C(=O)c2cc3cc(C)n(CCN4CCOCC4)c3s2)cc1 | < 100 nM

// fetch EC50; item: "Cc1cc2cc(C(=O)c3ccc(Cl)c(Cl)c3)sc2n1CCN1CCOCC1" ; system: human CB2 receptors (Homo sapiens, UniProt P34972)
100 to 1000 nM

// fetch EC50; item: "Cc1cc2cc(C(=O)c3cccnc3Cl)sc2n1CCN1CCOCC1" ; system: human CB2 receptors (Homo sapiens, UniProt P34972)
< 100 nM

// fetch EC50; item: Cc1cc2cc(C(=O)c3cccc(Cl)c3Cl)sc2n1CC1CCCCN1C (stereo not shown) ; system: human CB2 receptors (Homo sapiens, UniProt P34972)
< 100 nM

// fetch EC50; item: "COc1ccc(C(=O)c2cc3cc(C)n(CCN4CCOCC4)c3s2)c(F)c1" ; system: human CB2 receptors (Homo sapiens, UniProt P34972)
< 100 nM

// fetch EC50; item: Cc1ccc(C(O)c2cc3cc(C)n(CCN4CCOCC4)c3s2)cn1 (stereo not shown) ; system: human CB2 receptors (Homo sapiens, UniProt P34972)
100 to 1000 nM

// fetch EC50; item: "Cc1cc2cc(C(=O)c3cccc4c3OCC4)sc2n1CCN1CCOCC1" ; system: human CB2 receptors (Homo sapiens, UniProt P34972)
< 100 nM

// fetch EC50; item: COc1ccc(C(=O)c2cc3cc(C)n(CCN4CCCC4C(=O)O)c3s2)cn1 (stereo not shown) ; system: human CB2 receptors (Homo sapiens, UniProt P34972)
100 to 1000 nM

// fetch EC50; item: "CNc1ccc(C(=O)c2cc3cc(C)n(CCN4CCOCC4)c3s2)cc1" ; system: human CB2 receptors (Homo sapiens, UniProt P34972)
< 100 nM

// fetch EC50; item: "CCN(CC)CCn1c(C)cc2cc(C(=O)c3ccc(OC)nc3)sc21" ; system: human CB2 receptors (Homo sapiens, UniProt P34972)
100 to 1000 nM

// fetch EC50; item: "Cc1cc2cc(C(=O)c3ccc(O)cc3F)sc2n1CCN1CCOCC1" ; system: human CB2 receptors (Homo sapiens, UniProt P34972)
< 100 nM

// fetch EC50; item: "COc1ccc(C(=O)c2cc3cc(C)n(CCN4CCSCC4)c3s2)cc1" ; system: human CB2 receptors (Homo sapiens, UniProt P34972)
< 100 nM
